The reported measurements were obtained from paper PMC9459403.

Tgt: Cathepsin V (Homo sapiens)
Construct: made in house; host or cells: Pichia pastoris
Sequence (O60911 114-334): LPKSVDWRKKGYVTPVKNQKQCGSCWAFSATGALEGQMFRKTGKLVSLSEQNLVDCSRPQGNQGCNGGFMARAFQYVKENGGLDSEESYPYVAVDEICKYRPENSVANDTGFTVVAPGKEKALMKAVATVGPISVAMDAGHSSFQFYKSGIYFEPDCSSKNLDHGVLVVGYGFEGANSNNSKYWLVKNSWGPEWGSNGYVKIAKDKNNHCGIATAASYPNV
Run description: Determination of relative inhibition, substrate Z-Phe-Arg-AMC
Type: biochemical
Measurement setup: inhibitor 50 μM; substrate 2 μM; mean ± SD (n = 2); read-out: Cathepsin V Ri (%) relative inhibition
Assay endpoint: inhibition at 50 µM (%)

{"Compound": "COC(=O)N1CCC(CNC(=O)NC(c2ccccc2)c2ccccc2)CC1 [Compound 45]", "Measurement unit": "%", "inhibition at 50 µM": 9.2}

P: COc1ccc(CNC(=O)N2CCC(C(=O)N3CCCCC3)CC2)cc1 [Compound 50]
Q: O=C(Nc1nc2c(s1)CN(Cc1ccccc1)CC2)c1cccc2ccccc12 [Compound 5]
Min inhibition at 50 µM? P | Q When you have decided, please share the label of that item.
Q
(Q: -5.8%, P: -2.9%)

----------
Tgt: human recombinant cathepsin L (Homo sapiens, UniProt P07711)
Sequence (P07711 114-333): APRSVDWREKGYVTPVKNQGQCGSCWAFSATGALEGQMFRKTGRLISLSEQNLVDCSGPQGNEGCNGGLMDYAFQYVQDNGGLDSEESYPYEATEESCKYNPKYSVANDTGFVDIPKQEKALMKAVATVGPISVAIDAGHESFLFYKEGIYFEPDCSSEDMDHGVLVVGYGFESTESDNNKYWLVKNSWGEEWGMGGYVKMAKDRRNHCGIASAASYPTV
Run description: Determination of Ki values and mode of inhibition
Measurement setup: mean ± SD (n = 2)
pKi: −log10 of the molar value.
Assay endpoint: pKi

{"Compound": "O=C(NCC1CCN(C(=O)Oc2ccccc2)CC1)NC(c1ccccc1)c1ccccc1 [Compound 42]", "Assay endpoint": "pKi", "Value observed": 3.50}

A: Cc1cc(OCc2ccccc2)c(C(=O)C2OC2c2cc3ccccc3o2)cc1C (stereo not drawn) [Compound 27]
B: COc1ccc(NC(C)=O)cc1NC(=O)c1n[nH]c2ccccc12 [Compound 6]
Determine, for A and B , which has the greater value of pKi. When you have decided, please share the label of that item.
A
(A: 3.60, B: 3.20)

----------
Tgt: human recombinant cathepsin L (Homo sapiens, UniProt P07711)
Construct: made in house; host or cells: Escherichia coli
Run description: Determination of relative inhibition, substrate Z-Phe-Arg-AMC
Format: biochemical
Measurement setup: inhibitor 50 μM; substrate 2 μM; mean ± SD (n = 2); read-out: Cathepsin L Ri (%) relative inhibition
Assay endpoint: inhibition at 50 µM (%)

{"Compound": "O=C(NCc1cccc2ccccc12)NCC1CCN(C(=O)Oc2ccccc2)CC1 [Compound 7]", "Tgt": "human recombinant cathepsin L (Homo sapiens, UniProt P07711)", "Measurement unit": "%", "inhibition at 50 µM": 12.1}
{"Compound": "O=C(NCc1nnc2c(C(F)(F)F)cccn12)c1cc2cc(Cl)ccc2[nH]1 [Compound 20]", "Tgt": "human recombinant cathepsin L (Homo sapiens, UniProt P07711)", "Measurement unit": "%", "inhibition at 50 µM": 14.5}
{"Compound": "O=c1cc(-c2ccccc2)c2cc(Cl)c(OCC3CO3)cc2o1 (stereo not shown) [Compound 23]", "Tgt": "human recombinant cathepsin L (Homo sapiens, UniProt P07711)", "Measurement unit": "%", "inhibition at 50 µM": 11.9}
{"Compound": "Cc1cc(OCc2ccccc2)c(C(=O)C2OC2c2csc(-c3ccccc3)n2)cc1C (stereo not shown) [Compound 49]", "Tgt": "human recombinant cathepsin L (Homo sapiens, UniProt P07711)", "Measurement unit": "%", "inhibition at 50 µM": 12.9}

----------
Tgt: human recombinant cathepsin L (Homo sapiens, UniProt P07711)
Construct: made in house; host or cells: Escherichia coli
Run description: Determination of relative inhibition, substrate Z-Phe-Arg-AMC
Format: biochemical
Measurement setup: inhibitor 50 μM; substrate 2 μM; mean ± SD (n = 2); read-out: Cathepsin L Ri (%) relative inhibition
Assay endpoint: inhibition at 50 µM (%)

{"Molecule": "CCCNC(=O)[C@H]1O[C@@H]1C(=O)N[C@H](C(=O)N1CCC[C@@H]1C(=O)OC)[C@@H](C)CC [Compound 25]", "Measurement unit": "%", "inhibition at 50 µM": 83.7}

a: CC(=O)c1cccc(NC(=O)c2cnc3sccn3c2=O)c1 [Compound 4]
b: CC(=O)N1CCc2cc(C(=O)C(C)OC(=O)CCc3nc(-c4cccs4)no3)ccc21 (stereo not drawn) [Compound 34]
c: Cc1[nH]c(C(=O)NCCCc2nc3ccccc3[nH]2)c(C)c1C(=O)OC(C)C [Compound 37]
List from greatest to least inhibition at 50 µM. Please write the labels in the order that was asked for.
a, c, b
(a: 23.5%, c: -2.1%, b: -3%)
